# credit: patent US20220257774A1

Below, each of the compounds is paired with its reported IC50 value.
Test system: 22RV1 cells
run_description: Inhibition of the proliferation of drug-resistant prostate cancer cell 22RV1 (CCK-8)
Format: cell-based
conditions_used: Homo sapiens; 22RV1 cells (enzalutamide-resistant), same method

A selection of reference data follows.
> print(dat)
                                   compound  endpoint.name      value
1  Cc1ccc(-c2c(C)noc2C)cc1N(CCC1CN(c2cc3c(cc2F)C(=O)N(C2CCC(=O)NC2=O)C3=O)C1)c1ccc(C2(C#N)CC2)cc1 (stereo not drawn)           IC50   < 100 nM
2  Cc1ccc(-c2c(C)noc2C)cc1N(CCCNc1cc2c(cc1F)CN(C1CCC(=O)NC1=O)C2=O)c1ccc(C2(C#N)CC2)cc1 (stereo not drawn)           IC50  > 2000 nM
3  Cc1ccc(-c2c(C)noc2C)cc1N(c1ccc(C2(C#N)CC2)cc1)C1CN(c2ccc3c(c2)C(=O)N(C2CCC(=O)NC2=O)C3=O)C1 (stereo not drawn)           IC50  > 2000 nM
4  Cc1ccc(-c2c(C)noc2C)cc1N(CC1CN(C2CN(c3cc4c(cc3F)C(=O)N(C3CCC(=O)NC3=O)C4)C2)C1)c1ccc(C2(C#N)CC2)cc1 (stereo not drawn)           IC50   < 100 nM

Prompt: Could you tell me which IC50 is on file for Cc1ccc(-c2c(C)noc2C)cc1N(CCN1CCN(c2ccc3c(c2)C(=O)N(C2CCC(=O)NC2=O)C3=O)CC1)c1ccc(C2(C#N)CC2)cc1 (stereo not drawn) ?
Response: < 100 nM

Prompt: Could you tell me which IC50 is on file for Cc1ccc(-c2c(C)noc2C)cc1N(CC1CCC(CNc2ccc3c(c2)CN(C2CCC(=O)NC2=O)C3=O)CC1)c1ccc(C#N)c(Cl)c1 (stereo not drawn) ?
Response: < 100 nM

Prompt: Could you tell me which IC50 is on file for Cc1ccc(-c2c(C)noc2C)cc1N(CCCOC1CN(c2cc3c(cc2F)C(=O)N(C2CCC(=O)NC2=O)C3=O)C1)c1ccc(C2(C#N)CC2)cc1 (stereo not drawn) ?
Response: < 100 nM

Prompt: Could you tell me which IC50 is on file for Cc1ccc(-c2c(C)noc2C)cc1N(CCCNc1ccc2c(c1)C(=O)N(C1CCC(=O)NC1=O)C2=O)c1ccc(C2(C#N)CC2)cc1 (stereo not drawn) ?
Response: 101 to 500 nM

Prompt: Could you tell me which IC50 is on file for Cc1ccc(-c2c(C)noc2C)cc1N(CCOC1(C)CN(c2cc3c(cc2F)CN(C2CCC(=O)NC2=O)C3=O)C1)c1ccc(C2(C#N)CC2)cc1 (stereo not drawn) ?
Response: > 2000 nM

* * *

Test system: 22RV1 cells
run_description: Inhibition of the proliferation of drug-resistant prostate cancer cell 22RV1 (CCK-8)
Format: cell-based
conditions_used: Homo sapiens; 22RV1 cells (enzalutamide-resistant), same method
endpoint_name: IC50

A selection of reference data follows.
molecule	IC50
Cc1ccc(-c2c(C)noc2C)cc1N(CC1CN(c2cc3c(cc2F)CN(C2CCC(=O)NC2=O)C3=O)C1)c1ccc(C2(C#N)CC2)cc1 (stereo not drawn) [Compound 155]	> 2 µM
Cc1ccc(-c2c(C)noc2C)cc1N(C[C@H]1C[C@@H]1CNc1cc2c(cc1F)C(=O)N(C1CCC(=O)NC1=O)C2)c1ccc(C2(C#N)CC2)cc1 (stereo partly drawn) [Compound 185]	> 2 µM
Cc1ccc(-c2c(C)noc2C)cc1N(CCCCNc1cc2c(cc1F)CN(C1CCC(=O)NC1=O)C2=O)c1ccc(C2(C#N)CC2)cc1 (stereo not drawn) [Compound 42]	0.501 to 2 µM
Cc1ccc(-c2c(C)noc2C)cc1N(CC1CC2(CCN(c3cc4c(cc3F)C(=O)N(C3CCC(=O)NC3=O)C4=O)CC2)C1)c1ccc(C2(C#N)CC2)cc1 (stereo not drawn) [Compound 154]	0.101 to 0.5 µM
Cc1ccc(-c2c(C)noc2C)cc1N(CCCC1CCN(c2ccc3c(c2)CN(C2CCC(=O)NC2=O)C3=O)CC1)c1ccc(C2(C#N)CC2)cc1 (stereo not drawn) [Compound 32]	< 0.1 µM

The record that follows has no IC50 shown yet.
Prompt: Could you tell me which IC50 is on file for Cc1ccc(-c2c(C)noc2C)cc1N(c1ccc(C2(C#N)CC2)cc1)C1CN(CC2CN(c3ccc4c(c3)C(=O)N(C3CCC(=O)NC3=O)C4=O)C2)C1 (stereo not drawn) [Compound 67] ?
Response: < 0.1 µM

* * *

System: 22RV1 cells
run_description: Inhibition of the proliferation of drug-resistant prostate cancer cell 22RV1 (CCK-8)
Assay type: cell-based
conditions_used: Homo sapiens; 22RV1 cells (enzalutamide-resistant), same method
Method: […] a. […] 2) The absorbance (OD value) was measured at 450 nm with a multifunctional microplate reader. 3) The data was analyzed by the Dose-response-inhibition equation in the software GraphPad Prism5, and the IC50 value was obtained. […]
Below, each of the molecules is paired with its reported IC50 value.

molecule	IC50
Cc1ccc(-c2c(C)noc2C)cc1N(CC1CCN(CCNc2ccc3c(c2)C(=O)N(C2CCC(=O)NC2=O)C3=O)CC1)c1ccc(C2(C#N)CC2)cc1 (centres unmarked) [Compound 117]	< 100 nM
Cc1ccc(-c2c(C)noc2C)cc1N(CCCCOc1ccc2c(c1)C(=O)N(C1CCC(=O)NC1=O)C2=O)c1ccc(C2(C#N)CC2)cc1 (centres unmarked) [Compound 108]	501 to 2000 nM

Prompt: Could you tell me which IC50 is on file for Cc1ccc(-c2c(C)noc2C)cc1N(CCC(C)CCNc1cc2c(cc1F)C(=O)N(C1CCC(=O)NC1=O)C2)c1ccc(C2(C#N)CC2)cc1 (centres unmarked) [Compound 191] ?
Response: 501 to 2000 nM

Prompt: Could you tell me which IC50 is on file for Cc1ccc(-c2c(C)n[nH]c2C)cc1N(CCCCCOCC(=O)N[C@H](C(=O)N1C[C@H](O)C[C@H]1C(=O)N[C@@H](C)c1ccc(-c2scnc2C)cc1)C(C)(C)C)c1ccc(C#N)c(Cl)c1 [Compound 44] ?
Response: > 2000 nM

Prompt: Could you tell me which IC50 is on file for Cc1ccc(-c2c(C)noc2C)cc1N(CC(C)OC1CN(c2ccc3c(c2)C(=O)N(C2CCC(=O)NC2=O)C3=O)C1)c1ccc(C2(C#N)CC2)cc1 (centres unmarked) [Compound 174] ?
Response: < 100 nM

* * *

System: 22RV1 cells
run_description: Inhibition of the proliferation of drug-resistant prostate cancer cell 22RV1 (CCK-8)
Assay type: cell-based
conditions_used: Homo sapiens; 22RV1 cells (enzalutamide-resistant), same method
Below, each of the molecules is paired with its reported IC50 value.

A selection of reference data follows.
molecule	endpoint_name	value
Cc1ccc(-c2c(C)noc2C)cc1N(CCCNc1cc2c(cc1F)C(=O)N(C1CCC(=O)NC1=O)C2)c1ccc(C2(C#N)CC2)cc1 (centres unmarked)	IC50	> 2000 nM
Cc1ccc(-c2c(C)noc2C)cc1N(C[C@H]1C[C@@H]1CNc1ccc2c(c1)C(=O)N(C1CCC(=O)NC1=O)C2)c1ccc(C2(C#N)CC2)cc1 (some centres unmarked)	IC50	> 2000 nM
Cc1ccc(-c2c(C)noc2C)cc1N(CCCCNc1cc2c(cc1F)C(=O)N(C1CCC(=O)NC1=O)C2=O)c1ccc(C#N)c(Cl)c1 (centres unmarked)	IC50	> 2000 nM

Prompt: Could you tell me which IC50 is on file for Cc1ccc(-c2c(C)noc2C)cc1N(CCCOC1(C)CN(c2ccc3c(c2)C(=O)N(C2CCC(=O)NC2=O)C3=O)C1)c1ccc(C2(C#N)CC2)cc1 (centres unmarked) ?
Response: 101 to 500 nM

Prompt: Could you tell me which IC50 is on file for Cc1ccc(-c2c(C)noc2C)cc1N(CCCCNc1cc2c(cc1F)C(=O)N(C1CCC(=O)NC1=O)C2)c1ccc(C#N)c(Cl)c1 (centres unmarked) ?
Response: > 2000 nM

* * *

Tested on: 22RV1 cells
run_description: Inhibition of the proliferation of drug-resistant prostate cancer cell 22RV1 (CCK-8)
Format: cell-based
conditions_used: Homo sapiens; 22RV1 cells (enzalutamide-resistant), same method
endpoint_name: IC50

A selection of reference data follows.
molecule	endpoint_name	value
Cc1ccc(-c2c(C)noc2C)cc1N(CC1CCN(C2CN(c3ccc4c(c3)C(=O)N(C3CCC(=O)NC3=O)C4=O)C2)CC1)c1ccc(C2(C#N)CC2)cc1 (stereo not shown)	IC50	< 100 nM
Cc1ccc(-c2c(C)noc2C)cc1N(CC1CN(C2CCN(c3ccc4c(c3)C(=O)N(C3CCC(=O)NC3=O)C4)CC2)C1)c1ccc(C2(C#N)CC2)cc1 (stereo not shown)	IC50	> 2000 nM
Cc1ccc(-c2c(C)noc2C)cc1N(CC1CN(C2CCN(c3ccc4c(c3)C(=O)N(C3CCC(=O)NC3=O)C4=O)CC2)C1)c1ccc(C2(C#N)CC2)cc1 (stereo not shown)	IC50	501 to 2000 nM
Cc1ccc(-c2c(C)noc2C)cc1N(CCCOC1CN(c2cc3c(cc2F)CN(C2CCC(=O)NC2=O)C3=O)C1)c1ccc(C2(C#N)CC2)cc1 (stereo not shown)	IC50	501 to 2000 nM
Cc1ccc(-c2c(C)noc2C)cc1N(CCC(C)CCNc1ccc2c(c1)C(=O)N(C1CCC(=O)NC1=O)C2=O)c1ccc(C2(C#N)CC2)cc1 (stereo not shown)	IC50	< 100 nM
Cc1ccc(-c2c(C)noc2C)cc1N(CC1CCN(C2CN(c3cc4c(cc3F)CN(C3CCC(=O)NC3=O)C4=O)C2)CC1)c1ccc(C2(C#N)CC2)cc1 (stereo not shown)	IC50	< 100 nM
Cc1ccc(-c2c(C)noc2C)cc1N(CCCCCOCC(=O)N[C@H](C(=O)N1C[C@H](O)C[C@H]1C(=O)N[C@@H](C)c1ccc(-c2scnc2C)cc1)C(C)(C)C)c1ccc(C2(C#N)CC2)cc1	IC50	< 100 nM
Cc1ccc(-c2c(C)noc2C)cc1N(CC(C)O[C@@H]1CCN(c2ccc3c(c2)C(=O)N(C2CCC(=O)NC2=O)C3=O)C1)c1ccc(C2(C#N)CC2)cc1 (stereo partly shown)	IC50	> 2000 nM
Cc1ccc(-c2c(C)noc2C)cc1N(CCCCNc1ccc2c(c1)C(=O)N(C1CCC(=O)NC1=O)C2=O)c1ccc(C2(C#N)CC2)cc1 (stereo not shown)	IC50	< 100 nM
Cc1ccc(-c2c(C)noc2C)cc1N(C[C@H]1CC[C@H](CNc2cc3c(cc2F)CN(C2CCC(=O)NC2=O)C3=O)CC1)c1ccc(C2(C#N)CC2)cc1 (stereo partly shown)	IC50	< 100 nM

Prompt: Could you tell me which IC50 is on file for Cc1ccc(-c2c(C)noc2C)cc1N(CC1CCC(Nc2cc3c(cc2F)C(=O)N(C2CCC(=O)NC2=O)C3=O)CC1)c1ccc(C2(C#N)CC2)cc1 (stereo not shown) ?
Response: > 2000 nM

Prompt: Could you tell me which IC50 is on file for Cc1ccc(-c2c(C)noc2C)cc1N(C[C@H]1CC[C@H](CNc2ccc3c(c2)C(=O)N(C2CCC(=O)NC2=O)C3=O)CC1)c1ccc(C2(C#N)CC2)cc1 (stereo partly shown) ?
Response: < 100 nM

Prompt: Could you tell me which IC50 is on file for Cc1ccc(-c2c(C)noc2C)cc1N(CCN1CCN(c2ccc3c(c2)CN(C2CCC(=O)NC2=O)C3=O)CC1)c1ccc(C2(C#N)CC2)cc1 (stereo not shown) ?
Response: 101 to 500 nM

Prompt: Could you tell me which IC50 is on file for Cc1ccc(-c2c(C)noc2C)cc1N(CC1CCN(C2CN(c3cc4c(cc3F)C(=O)N(C3CCC(=O)NC3=O)C4)C2)CC1)c1ccc(C2(C#N)CC2)cc1 (stereo not shown) ?
Response: < 100 nM

Prompt: Could you tell me which IC50 is on file for Cc1ccc(-c2c(C)noc2C)cc1N(CC1CN(c2cc3c(cc2F)C(=O)N(C2CCC(=O)NC2=O)C3)C1)c1ccc(C2(C#N)CC2)cc1 (stereo not shown) ?
Response: 501 to 2000 nM
